Measured activation at 50 µM values are reported for all entries that follow.
# SYSTEM: TRAP1 enzyme (Homo sapiens, UniProt Q12931)
# Construct: 150 nM Trap1 enzyme was incubated with various concentrations of the test compound
# Sequence (Q12931 60-704): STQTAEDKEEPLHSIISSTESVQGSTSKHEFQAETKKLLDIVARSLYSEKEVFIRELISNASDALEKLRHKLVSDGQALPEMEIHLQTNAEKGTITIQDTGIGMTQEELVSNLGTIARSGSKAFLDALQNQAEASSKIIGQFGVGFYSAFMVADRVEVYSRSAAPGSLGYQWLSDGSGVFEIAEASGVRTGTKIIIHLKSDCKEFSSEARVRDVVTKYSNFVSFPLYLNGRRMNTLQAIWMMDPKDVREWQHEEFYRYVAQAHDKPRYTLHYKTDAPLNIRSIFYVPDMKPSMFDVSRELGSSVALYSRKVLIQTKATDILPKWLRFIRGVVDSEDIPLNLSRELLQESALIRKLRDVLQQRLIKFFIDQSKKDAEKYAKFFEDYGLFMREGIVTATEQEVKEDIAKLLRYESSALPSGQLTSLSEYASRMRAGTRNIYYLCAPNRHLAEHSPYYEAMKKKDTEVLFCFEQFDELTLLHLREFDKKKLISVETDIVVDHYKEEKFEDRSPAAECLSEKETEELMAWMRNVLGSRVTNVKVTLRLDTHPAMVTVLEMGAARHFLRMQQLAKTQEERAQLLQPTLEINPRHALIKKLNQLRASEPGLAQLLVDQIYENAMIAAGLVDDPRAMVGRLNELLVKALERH
# TEST_SUMMARY: ADP Glo assay of TRAP1 ATPase activity
# Type: biochemical
# DETAILS: 1 h; compound concentration 50 μM; read-out: ADP-Glo Percent Activation at 50 μM
ASSAY_ENDPOINT: activation at 50 µM

[
  {
    "MOLECULAR_STRING": "COc1ncc(NC(=O)c2ccccc2C(F)(F)F)cc1S(=O)(=O)Nc1c(C)cccc1C",
    "ASSAY_ENDPOINT": "activation at 50 µM",
    "REPORTED_MEASUREMENT": "151 to 180%"
  },
  {
    "MOLECULAR_STRING": "COc1cccc(C(=O)Nc2cnc(OC)c(S(=O)(=O)Nc3c(C)cccc3C)c2)n1",
    "ASSAY_ENDPOINT": "activation at 50 µM",
    "REPORTED_MEASUREMENT": "181 to 352%"
  },
  {
    "MOLECULAR_STRING": "COc1ncc(NC(=O)c2nn(C)cc2C)cc1S(=O)(=O)Nc1c(C)cccc1C",
    "ASSAY_ENDPOINT": "activation at 50 µM",
    "REPORTED_MEASUREMENT": "181 to 352%"
  },
  {
    "MOLECULAR_STRING": "COCCn1nccc1C(=O)Nc1cnc(OC)c(S(=O)(=O)Nc2c(C)cccc2C)c1",
    "ASSAY_ENDPOINT": "activation at 50 µM",
    "REPORTED_MEASUREMENT": "120 to 150%"
  },
  {
    "MOLECULAR_STRING": "COc1ncc(NC(=O)c2ccc(CNC(C)=O)cc2)cc1S(=O)(=O)Nc1c(C)cccc1C",
    "ASSAY_ENDPOINT": "activation at 50 µM",
    "REPORTED_MEASUREMENT": "151 to 180%"
  },
  {
    "MOLECULAR_STRING": "COc1ncc(NC(=O)c2ccnc(N3CCOCC3)c2)cc1S(=O)(=O)Nc1c(C)cccc1C",
    "ASSAY_ENDPOINT": "activation at 50 µM",
    "REPORTED_MEASUREMENT": "181 to 352%"
  },
  {
    "MOLECULAR_STRING": "COc1ncc(NC(=O)c2cnc(C(F)(F)F)s2)cc1S(=O)(=O)Nc1c(C)cccc1C",
    "ASSAY_ENDPOINT": "activation at 50 µM",
    "REPORTED_MEASUREMENT": "120 to 150%"
  },
  {
    "MOLECULAR_STRING": "COCc1c[nH]c(C(=O)Nc2cnc(OC)c(S(=O)(=O)Nc3c(C)cccc3C)c2)c1",
    "ASSAY_ENDPOINT": "activation at 50 µM",
    "REPORTED_MEASUREMENT": "120 to 150%"
  },
  {
    "MOLECULAR_STRING": "COc1ncc(NC(=O)c2ccc(NS(C)(=O)=O)cc2)cc1S(=O)(=O)Nc1c(C)cccc1C",
    "ASSAY_ENDPOINT": "activation at 50 µM",
    "REPORTED_MEASUREMENT": "181 to 352%"
  },
  {
    "MOLECULAR_STRING": "CCCN1CCN(c2ccc(C(=O)Nc3cnc(OC)c(S(=O)(=O)Nc4c(C)cccc4C)c3)cc2)CC1",
    "ASSAY_ENDPOINT": "activation at 50 µM",
    "REPORTED_MEASUREMENT": "181 to 352%"
  },
  {
    "MOLECULAR_STRING": "COc1ncc(NC(=O)c2ccc(N3CCOCC3)nc2)cc1S(=O)(=O)Nc1c(C)cccc1C",
    "ASSAY_ENDPOINT": "activation at 50 µM",
    "REPORTED_MEASUREMENT": "181 to 352%"
  },
  {
    "MOLECULAR_STRING": "COc1ncc(NC(=O)c2n[nH]c3c2CCC3)cc1S(=O)(=O)Nc1c(C)cccc1C",
    "ASSAY_ENDPOINT": "activation at 50 µM",
    "REPORTED_MEASUREMENT": "181 to 352%"
  },
  {
    "MOLECULAR_STRING": "COc1ncc(NC(=O)c2cc[nH]c3nccc2-3)cc1S(=O)(=O)Nc1c(C)cccc1C",
    "ASSAY_ENDPOINT": "activation at 50 µM",
    "REPORTED_MEASUREMENT": "181 to 352%"
  },
  {
    "MOLECULAR_STRING": "CCCc1cc(C(=O)Nc2cnc(OC)c(S(=O)(=O)Nc3c(C)cccc3C)c2)nn1C",
    "ASSAY_ENDPOINT": "activation at 50 µM",
    "REPORTED_MEASUREMENT": "181 to 352%"
  },
  {
    "MOLECULAR_STRING": "CCN(CC)S(=O)(=O)c1ccc(C(=O)Nc2cnc(OC)c(S(=O)(=O)Nc3c(C)cccc3C)c2)cc1",
    "ASSAY_ENDPOINT": "activation at 50 µM",
    "REPORTED_MEASUREMENT": "151 to 180%"
  },
  {
    "MOLECULAR_STRING": "COc1ncc(NC(=O)c2cncs2)cc1S(=O)(=O)Nc1c(C)cccc1C",
    "ASSAY_ENDPOINT": "activation at 50 µM",
    "REPORTED_MEASUREMENT": "120 to 150%"
  },
  {
    "MOLECULAR_STRING": "COc1ncc(NC(=O)c2cnccc2N(C)C)cc1S(=O)(=O)Nc1c(C)cccc1C",
    "ASSAY_ENDPOINT": "activation at 50 µM",
    "REPORTED_MEASUREMENT": "120 to 150%"
  },
  {
    "MOLECULAR_STRING": "COc1ncc(NC(=O)c2oncc2C)cc1S(=O)(=O)Nc1c(C)cccc1C",
    "ASSAY_ENDPOINT": "activation at 50 µM",
    "REPORTED_MEASUREMENT": "120 to 150%"
  },
  {
    "MOLECULAR_STRING": "COc1ncc(NC(=O)c2coc(C(C)C)n2)cc1S(=O)(=O)Nc1c(C)cccc1C",
    "ASSAY_ENDPOINT": "activation at 50 µM",
    "REPORTED_MEASUREMENT": "181 to 352%"
  },
  {
    "MOLECULAR_STRING": "COc1ncc(NC(=O)c2ccc(S(=O)(=O)NC(C)(C)C)cc2)cc1S(=O)(=O)Nc1c(C)cccc1C",
    "ASSAY_ENDPOINT": "activation at 50 µM",
    "REPORTED_MEASUREMENT": "181 to 352%"
  },
  {
    "MOLECULAR_STRING": "COc1ncc(NC(=O)c2ccc(S(=O)(=O)C(F)F)cc2)cc1S(=O)(=O)Nc1c(C)cccc1C",
    "ASSAY_ENDPOINT": "activation at 50 µM",
    "REPORTED_MEASUREMENT": "151 to 180%"
  },
  {
    "MOLECULAR_STRING": "COc1ncc(NC(=O)c2ccc(N3CCCC3=O)cc2)cc1S(=O)(=O)Nc1c(C)cccc1C",
    "ASSAY_ENDPOINT": "activation at 50 µM",
    "REPORTED_MEASUREMENT": "151 to 180%"
  },
  {
    "MOLECULAR_STRING": "COc1ncc(NC(=O)c2cnn(C)c2C)cc1S(=O)(=O)Nc1c(C)cccc1C",
    "ASSAY_ENDPOINT": "activation at 50 µM",
    "REPORTED_MEASUREMENT": "120 to 150%"
  },
  {
    "MOLECULAR_STRING": "COc1ncc(NC(=O)c2c(C)nn(C)c2Cl)cc1S(=O)(=O)Nc1c(C)cccc1C",
    "ASSAY_ENDPOINT": "activation at 50 µM",
    "REPORTED_MEASUREMENT": "120 to 150%"
  },
  {
    "MOLECULAR_STRING": "COc1ncc(NC(=O)c2cnc(N(C)C)nc2)cc1S(=O)(=O)Nc1c(C)cccc1C",
    "ASSAY_ENDPOINT": "activation at 50 µM",
    "REPORTED_MEASUREMENT": "120 to 150%"
  },
  {
    "MOLECULAR_STRING": "COc1ncc(NC(=O)c2cc(C)nn2C)cc1S(=O)(=O)Nc1c(C)cccc1C",
    "ASSAY_ENDPOINT": "activation at 50 µM",
    "REPORTED_MEASUREMENT": "120 to 150%"
  },
  {
    "MOLECULAR_STRING": "COc1ncc(NC(=O)c2cc3c(s2)CCC3)cc1S(=O)(=O)Nc1c(C)cccc1C",
    "ASSAY_ENDPOINT": "activation at 50 µM",
    "REPORTED_MEASUREMENT": "120 to 150%"
  },
  {
    "MOLECULAR_STRING": "COc1ncc(NC(=O)c2ccc(OCC(F)(F)F)cc2)cc1S(=O)(=O)Nc1c(C)cccc1C",
    "ASSAY_ENDPOINT": "activation at 50 µM",
    "REPORTED_MEASUREMENT": "120 to 150%"
  },
  {
    "MOLECULAR_STRING": "COc1ncc(NC(=O)c2ccccc2CN(C)C)cc1S(=O)(=O)Nc1c(C)cccc1C",
    "ASSAY_ENDPOINT": "activation at 50 µM",
    "REPORTED_MEASUREMENT": "120 to 150%"
  },
  {
    "MOLECULAR_STRING": "COc1ncc(NC(=O)c2cc(C(C)C)no2)cc1S(=O)(=O)Nc1c(C)cccc1C",
    "ASSAY_ENDPOINT": "activation at 50 µM",
    "REPORTED_MEASUREMENT": "181 to 352%"
  },
  {
    "MOLECULAR_STRING": "COc1ncc(NC(=O)c2ccc(NC(C)=O)cc2C)cc1S(=O)(=O)Nc1c(C)cccc1C",
    "ASSAY_ENDPOINT": "activation at 50 µM",
    "REPORTED_MEASUREMENT": "151 to 180%"
  }
]
